Origin of measurements: patent US20260209318A1

- system: BQ.1.1 spike protein (SARS-CoV-2 variant BQ.1.1, UniProt P0DTC2 14-1273)
- assay: cell-based or functional assay
# IC50 (pVNT) listing for each entry below

{"columns": ["binder", "IC50 (pVNT)"],
 "data": [
  ["Ab40 (10x-L8N-c32) (antibody, V domains shown) VH: QVQLQESGPRLVKPSETLSLTCTVSGGSISSYYWTWIRQPPGKGLEWIGYISYSGSTNYNPSLRSRVTMSVDTSKNQFSLDLNSVTAADTAVYYCATDGGGFYPGYFPHWGQGTLVTVSS VL: DIQMTQSPSSLSASVGDRVTITCRASQSISDYVNWYQQKPGRAPRLLIYAPSTLQSGVPSRFSGSGSGTDFTLTISNLQPEDFGTYFCQQSYSTPPYTFGQGTKVEMK", "≤ 550 ng/ml"],
  ["Ab14 (F9) (antibody, V domains shown) VH: EVQLVESGGGLVQPGGSLRLSCATSGFTFDDFAMHWVRQGPGKGLEWVSGISWNSGKIAYTDSVKGRFSISRDNAKNSLYLQMNSLRPEDTALYYCTKDHAPSAILGDILTGFDPWGQGTLVT VL: DIQMTQSPVSLSASVGDRVTITCRASQSISVYLNWYQQKPGKAPKLLMYAASILQSGVPSRFSGSGSATDFTLTITSLQPEDFATYFCQQSFTMPPTFGQGTNLEIK", "≤ 550 ng/ml"],
  ["Ab39 (10x-L8N-c30) (antibody, V domains shown) VH: QVQLVQSGAEVKKPGSSVKISCKASGDTSSSYTINWVRQAPGQGLEWMGRIIPMFNRANYARKFQGRVTMTADRSTDTAYMEVSSLTSDDTAVYYCARTWIEPHNWFDPWGQGTLVTVSS VL: EIVLRQSPGTLSLSPGERATLSCRASQSVSGNHLAWYQRKPGQAPRLLIYAASSRATGIPDRFSGSGSGTDFTLTINRLEPEDFAVFYCQQYGTSPPTFGGGTKVEIK", "≤ 550 ng/ml"]
]}
